Hey, just so you know, these numbers are from patent US20190381037A1.

Each entry below carries its recorded EC50.
molecular target: human GPR40 receptor (Homo sapiens, UniProt O14842); assay: IP1 accumulation measurements using the IPOne assay system; conditions: 1321N1 cells stably expressing human GPR40 receptor; stimulated 1 h at 37° C.
Sequence (O14842 whole entry): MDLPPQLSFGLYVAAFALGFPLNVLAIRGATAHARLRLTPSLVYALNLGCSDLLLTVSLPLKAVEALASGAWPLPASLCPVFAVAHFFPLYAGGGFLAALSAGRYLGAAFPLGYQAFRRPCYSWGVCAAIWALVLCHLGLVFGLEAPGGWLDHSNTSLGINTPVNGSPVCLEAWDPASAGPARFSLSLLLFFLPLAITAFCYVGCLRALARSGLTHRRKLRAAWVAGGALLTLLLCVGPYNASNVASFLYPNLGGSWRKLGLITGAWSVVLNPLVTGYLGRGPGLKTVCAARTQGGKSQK
Measured property: EC50 (nM)

> print(dat)
                                   molecule  recorded.number
1  Cc1cc(OCC2CCCO2)cc(C)c1-c1ccc(F)c(COc2cnc([C@H]3C[C@@H]3C(=O)O)cn2)c1 (stereo partly shown) [Example 14]                6
2  CC(C)c1ccccc1-c1ccc(F)c(COc2cnc([C@H]3C[C@@H]3C(=O)O)cn2)c1 [Example 20]               35
3  Cc1cc(OC2CCOCC2)cc(C)c1-c1cccc(COc2cnc([C@H]3C[C@@H]3C(=O)O)cn2)c1 [Example 7]                8
4  COc1cc(-c2cc(C)c(-c3ccc(F)c(COc4cnc([C@H]5C[C@@H]5C(=O)O)cn4)c3)c(C)c2)ccn1 [Example 17]                7
5  O=C(O)[C@H]1C[C@@H]1c1cnc(OCc2cc(-c3c(Cl)cccc3Cl)ccc2F)cn1 [Example 15]                8
6  Cc1cc(OCCC(C)(C)O)cc(C)c1-c1cc(COc2cnc([C@H]3C[C@@H]3C(=O)O)cn2)c(F)cc1F [Example 1]                6
7  CCc1cccc(CC)c1-c1cccc(COc2cnc([C@H]3C[C@@H]3C(=O)O)cn2)c1 [Example 13]               20

----------
Each entry below carries its recorded EC50.
molecular target: UniProt:O14842; assay: IP1 accumulation measurements using the IPOne assay system; conditions: 1321N1 cells stably expressing human GPR40 receptor; stimulated 1 h at 37° C.
Measured property: EC50 (nM)

> print(dat)
                                 mol.smiles  recorded.number
1  Cc1cc(OCCC(C)(C)O)cc(C)c1-c1cccc(COc2cnc([C@H]3C[C@@H]3C(=O)O)cn2)c1                7
2  Cc1cc(-c2ccc(=O)n(C)c2)cc(C)c1-c1cccc(COc2cnc([C@H]3C[C@@H]3C(=O)O)cn2)c1                9
3  Cc1cc(O[C@H]2CCOC2)cc(C)c1-c1cccc(COc2cnc([C@H]3C[C@@H]3C(=O)O)cn2)c1               10
4  Cc1cc(OCCCS(C)(=O)=O)cc(C)c1-c1ccc(F)c(COc2cnc([C@H]3C[C@@H]3C(=O)O)cn2)c1                7
5  Cc1cc(-c2nnn(C)n2)cc(C)c1-c1cccc(COc2cnc([C@H]3C[C@@H]3C(=O)O)cn2)c1                3
